Tested on: SF-539 CNS
test_details: NCI tumour cell line growth inhibition, 48 h
Values of TGI greater than or equal to 9 µM map to Yes; values below map to No.

Below are worked cases with known answers.
Quick check: does Nc1ncc(Cl)c(NCC2(CO)CC(CCc3ccccc3)C2)n1 (stereo unspecified) have TGI greater than or equal to 9 µM?
Yes

For this compound, is measured TGI 9 µM or higher? COC(=O)c1cccc(N[C@@H]2c3cc4c(cc3C(c3cc(OC)c(O)c(OC)c3)[C@H]3C(=O)OCC32)OCO4)c1 (stereo partly specified)
No

Record O=C(O)CS ; criterion: TGI no lower than 9 µM. Met?
Yes

Further cases:
Check the entry CN(C)CCNC(=O)c1cccc2c(Nc3ccc(S(N)(=O)=O)cc3)c3ccccc3nc12 : does TGI equal or exceed 9 µM?
No

Assess whether reported TGI for O=C(Nc1cccc(Cc2cccc(NC(=O)c3ccccc3)c2)c1)c1ccccc1 sits at 9 µM or higher.
Yes

Does the compound O=C(/C=N/O)Nc1cc(Cl)c(Cl)cc1Cl have recorded TGI that is 9 µM or more?
Yes

hey, is TGI for this one >= 9 µM? N#CC(=C1CCCCC1)c1nc2ccccc2o1
Yes

Does CCN(CC)CCCC(C)Nc1ccnc2ccc3nn(C)nc3c12 (stereo unspecified) have a reported TGI of at least 9 µM?
Yes

Identify whether the reported TGI of the following compound is 9 µM or greater: CCNc1nnc(-c2nsc3ccccc23)s1
Yes

Say whether Cc1cc(Nc2c3ccccc3nc3ccccc23)ccc1NS(C)(=O)=O shows TGI of 9 µM or more.
Yes

Could you tell me if the measured TGI of C=C1c2[nH]c3ccccc3c2C2C(CC)C1CCN2C (stereo unspecified) reaches 9 µM or more?
Yes

Assess whether reported TGI for COc1cc(Nc2ncc(F)c(Nc3ccc4c(n3)NC(=O)C(C)(C)O4)n2)cc(OC)c1OC sits at 9 µM or higher.
Yes

----------
Tested on: NCI-H23 lung
test_details: NCI tumour cell line growth inhibition, 48 h
Each entry below carries its reported TGI.

Request body: readout TGI, system NCI-H23 lung, query N#CC(C#N)N=Nc1ccc(Br)cc1 . Return the value.
26.7 µM

Provide value of TGI for this record tested with NCI-H23 lung: Cc1nc([C@H]2CC[C@H]3[C@@H]4CCC5=CC(=O)CC[C@]5(C)[C@H]4CC[C@]23C)cs1
> 100 µM

Short answer please: TGI, NCI-H23 lung, entry Cc1ccc2c(sc(-c3ccc4c(c3)sc(-c3ccc5c(c3)sc(-c3ccc(N(C)C)cc3)[n+]5C)[n+]4C)[n+]2C)c1S(=O)(=O)O (tested in a mixture with another compound)
> 100 µM

Test system NCI-H23 lung; read-out TGI; what value for CN(/N=C/c1cccc2cccnc12)c1ccc([N+](=O)[O-])cc1 ?
> 100 µM

Item O=C(Nc1nn(C(=O)c2ccc(Cl)cc2)c(=O)s1)c1ccc(Cl)cc1 with NCI-H23 lung - TGI?
> 100 µM

More entries:
API: value(readout= TGI, system= NCI-H23 lung, query= CN1CCN(c2cc(C(=O)Nc3cc4cc(-c5cnn(C)c5)ccc4cn3)ccn2)CC1 )
3.29 µM

Given the entry O=C(Nc1c(C(F)(F)F)cc(-c2ccccc2)[nH]c1=O)N1CCOCC1 , what TGI was observed with NCI-H23 lung?
> 100 µM

Given the entry CC#C/C(=N\OC[C@H]1COCCN1)c1ccc2ncnc(Nc3ccc(OCc4cccc(F)c4)c(Cl)c3)c2c1 , what TGI was observed with NCI-H23 lung?
3.41 µM

Please provide the recorded TGI for O=C(Cc1csc(-c2nc(CC(=O)NNc3ccccc3)cs2)n1)NNc1ccccc1 , tested on NCI-H23 lung.
> 100 µM

Recall the recorded TGI for O=S(=O)(N/N=C/c1cccc(Cl)c1Cl)c1ccccc1 with NCI-H23 lung and state it.
> 100 µM

----------
System: SF-539 CNS
test_details: NCI tumour cell line growth inhibition, 48 h
assay_readout: TGI (µM)
Give just the number in µM; leave the unit off.

Recorded results for 7 compounds are shown here.
Value lookup for TGI; key = O=C(O)CCC/C=C\C[C@H]1C=CC(=O)/C1=C/C[C@@H](O)CCc1cccc(C(F)(F)F)c1
6.57

Data request, read-out TGI, for CC(=O)N1c2ccccc2NC2=C(C(=O)N(Cc3ccccc3)C2(C)C)C1c1ccco1 (stereo not given)
1.17

Please look up its TGI: O=C(N/N=C/c1ccc([N+](=O)[O-])o1)c1ccc(C(=O)N/N=C/c2ccc([N+](=O)[O-])o2)cc1
38.3

Give its TGI value. Item: Cc1ccc2c(n1)C(=O)C=CC2=O
35.3

// returns reported TGI for input CCCCCCCCCCCCCCCC[N+](C)(CCO)Cc1cnc[nH]1 (stereo not given)
4.75

Which value of TGI has been reported for COc1cc(/C=C/c2cc(/C=C/c3ccc(O)c(OC)c3)nc(N)n2)ccc1O in the records?
5.73

May I ask what TGI has been recorded for CC(C)CC(=O)Nc1n[nH]c2c1CN(C(=O)C1CCN(C)CC1)C2(C)C ?
8.99

Kindly consider the entry below.
// TGI lookup, key: CC=CCOc1cc(NC(=S)OC(C)C)ccc1Cl (mixture of isomers)
36.1

----------
Tested on: OVCAR-8 ovarian
test_details: NCI tumour cell line growth inhibition, 48 h
assay_readout: TGI

Would you kindly share the measured TGI for CCN(CC)CCN1C(=O)c2c(c(-c3ccccc3)c3ccccc3c2-c2ccccc2)C1=O ?
> 100 µM

Would you mind telling me what TGI value was observed for CCN1C[C@]2(C)CC[C@H](OC)C34C1C([C@H](OC(C)=O)[C@@H]32)[C@@]1(OC)C[C@H](OC)[C@H]2C[C@@H]4[C@@H]1[C@H]2O ?
> 100 µM

// query TGI value for entry COC(=O)CCC(=O)Nc1cc(Cl)ccc1Cl
> 100 µM

Endpoint output: TGI of Cc1ccc(N=N/C(=N/NC(=O)c2cc(Cl)ccc2C(=O)c2ccccc2)c2ccc(N(CCC#N)CCC#N)cc2C)cc1 . Value?
29.9 µM

Which TGI is reported for this compound? Nc1ncc(Cl)c(NCC2(CO)CC(CCc3ccccc3)C2)n1 (configuration not stated)
> 100 µM

Next:
Could you share which TGI value was measured for Cc1ccc(C2NC(=O)c3ccccc3N2)s1 (configuration not stated) ?
54.2 µM

Reported TGI, compound O=C(Nc1c(C(F)(F)F)cc(-c2ccccc2)[nH]c1=O)N1CCOCC1 : ____
> 100 µM

----------
System: NCI-H23 lung
test_details: NCI tumour cell line growth inhibition, 48 h
assay_readout: TGI

Check out these entries, answers already filled in.
Reported TGI for CCOC(=O)C(C(=O)c1ccccc1C(=O)OC)=P(c1ccccc1)(c1ccccc1)c1ccccc1 : what is it?
> 10 µM

What value of measured TGI is listed for O=[N+]([O-])c1ccc(/C=N/Nc2nnc3c4ccccc4c4ncccc4c3n2)o1 ?
> 10 µM

What does the record list as TGI for O=C(O)c1cc2ccccc2c(N=Nc2cc(C(F)(F)F)ccc2Cl)c1O ?
> 100 µM

Could you now consider this next molecule?
Recorded TGI of CCN(CC)c1ccc2c(c1)Oc1nc(N)c(C#N)c(N)c1C2Sc1ccc(OC)cc1 (stereo not given) , please.
3.02 µM

----------
System: ACHN renal
test_details: NCI tumour cell line growth inhibition, 48 h
assay_readout: TGI

Completed entries (count: 4):
# TGI lookup, item CN(CC#N)C1CCCC[C@H]1O (some centres undefined)
> 100 µM

// query TGI value for entry COc1cc(/C=C2/SC(c3ccccc3)N(c3ccccc3)C2=O)cc(OC)c1OC (centres undefined)
> 100 µM

I would be grateful if you could share the reported TGI for O=C(c1ccccc1)c1oc2ccc(Br)cc2c1-c1cnn(-c2ccccc2)c1 .
> 100 µM

# query: TGI of entry C/C=C1/CN2CCC3(O)c4ccccc4N4C=C(C(=O)OC)C1CC2C43O (centres undefined)
> 100 µM

***
Any idea what its TGI is? The compound is CCOc1ccc(NC(=O)/C(=N\NC(C)(C)C)C2C(=O)Nc3ccccc3S2=O)cc1 (centres undefined)
> 100 µM

I have this compound here, O=C1c2ccccc2NC1(c1ccccc1)c1c(-c2ccccc2)[nH]c2ccccc12 (centres undefined) , and I need its recorded TGI.
> 100 µM

Quick one: TGI for CN(C)C/C=C/C(=O)Nc1cc2c(Nc3ccc(F)c(Cl)c3F)ncnc2cc1OCCOC(F)F ?
1.08 µM

----------
We begin with a simple list: items and their reported TGI.
Test system: U251 CNS
test_details: NCI tumour cell line growth inhibition, 48 h

Name the reported TGI value associated with the molecule O=S(=O)(N/N=C/c1cccc(Cl)c1Cl)c1ccccc1
> 100 µM

Which value of TGI has been reported for CCN(CC)CCN1C(=O)c2c(c(-c3ccccc3)c3ccccc3c2-c2ccccc2)C1=O in the records?
> 100 µM

GET /values?readout=TGI&item= CCN(CC)CCCn1c(=O)c2ccccc2n2c3c(=O)n(C)c(=O)n(C)c3nc12
23.3 µM

Please give the measured TGI for this molecule: O=C(Nc1cc2c(=O)oc3ccccc3c2oc1=O)c1cccnc1
> 100 µM

Reported TGI, molecule Cc1cc(O)c(C2=NN(c3ccc(S(N)(=O)=O)cc3)C(c3ccc(N(C)C)cc3)C2)c(C)c1Cl (stereo unspecified) : ____
26.9 µM

Would you kindly share the measured TGI for CCN(CC)CCCC(C)Nc1ccnc2ccc3nn(C)nc3c12 (stereo unspecified) ?
> 100 µM

Bench note: what TGI did CN(CCc1ccccn1)c1nc(=[N+](C)C)ss1 show?
> 100 µM

# input molecule: CCCCCCCCCc1cc[n+](CC(=O)c2ccc([N+](=O)[O-])cc2)cc1 ; wanted: its TGI
1.76 µM
